MEASUREMENT NOTES: Inhibition of DLK in CD-1 mouse DRG neuron assessed as axonal protection pre-incubated for 2 hrs before NGF deprivation for 16 to 20 hrs by Campenot chamber based fluorescence assay
pEC50: −log10 of the molar value.
READOUT NAME: pEC50

* Nc1ncc(-c2cc([C@H]3[C@@H]4CN(C5COC5)C[C@@H]43)n(CC3CC3)n2)cc1C(F)(F)F | 6.34
* CC(C)n1nc(-c2cnc(N)c(OC(F)(F)F)c2)cc1[C@H]1[C@@H]2CN(C3COC3)C[C@@H]21 | 6.24
